Origin of measurements: ChEMBL document CHEMBL3865824

The entries below come with measured IC50 at 48 h values attached.
Experiment: Cytotoxicity against human MCF10A cells assessed as reduction in cell viability after 48 hrs by MTT assay
Assay type: toxicity, cell-based, MCF-10A

The following compounds have reported results that may help.
- STRUCTURE: "CC(C)n1c(/C=C2/C(=O)Nc3ccc(Cl)cc32)nc2ccccc21"
  IC50 at 48 h: "68.8 µM"
- STRUCTURE: "CC(C)n1c(/C=C2/C(=O)Nc3ccc(F)cc32)nc2ccccc21"
  IC50 at 48 h: "> 100 µM"
- STRUCTURE: "Cc1ccc2c(c1)/C(=C\\c1nc3ccccc3n1C(C)C)C(=O)N2"
  IC50 at 48 h: "99.7 µM"

Then this compound:
QUERY: Could you tell me which IC50 at 48 h is on file for "CC(C)n1c(/C=C2/C(=O)Nc3ccc(Br)cc32)nc2ccccc21" ?
RESULT: 56.9 µM

* * *

Assay: Cytotoxicity against HGC cells assessed as growth inhibition at 50 uM after 48 hrs by MTT assay relative to control
Type: functional
Settings: Homo sapiens, read-out: GI
The entries below come with measured inhibition of growth at 50 µM values attached.

- STRUCTURE: "CC(C)n1c(/C=C2/C(=O)Nc3ccc(F)cc32)nc2ccccc21"
  RESULT: "> 50%"
- STRUCTURE: "CCn1c(/C=C2/C(=O)Nc3ccc(F)cc32)nc2ccccc21"
  RESULT: "< 50%"
- STRUCTURE: "CCn1c(/C=C2/C(=O)Nc3ccc([N+](=O)[O-])cc32)nc2ccccc21"
  RESULT: "< 50%"

QUERY: Could you tell me which inhibition of growth at 50 µM is on file for "CCn1c(/C=C2/C(=O)Nc3ccc(C)cc32)nc2ccccc21" ?
RESULT: < 50%

QUERY: Could you tell me which inhibition of growth at 50 µM is on file for "CC(C)n1c(/C=C2/C(=O)Nc3ccccc32)nc2ccccc21" ?
RESULT: > 50%

* * *

Assay: Cytotoxicity against human PC3 cells assessed as growth inhibition at 50 uM after 48 hrs by MTT assay relative to control
Type: functional
Details: PC-3, 48 h, read-out: GI
The entries below come with measured inhibition of growth at 50 µM values attached.

- STRUCTURE: "CC(C)n1c(/C=C2/C(=O)Nc3ccc(F)cc32)nc2ccccc21"
  RESULT: "> 50%"
- STRUCTURE: "CCn1c(/C=C2/C(=O)Nc3ccc(Cl)cc32)nc2ccccc21"
  RESULT: "< 50%"
- STRUCTURE: "CC(C)n1c(/C=C2/C(=O)Nc3ccccc32)nc2ccccc21"
  RESULT: "> 50%"

QUERY: Could you tell me which inhibition of growth at 50 µM is on file for "CCn1c(/C=C2/C(=O)Nc3ccc(F)cc32)nc2ccccc21" ?
RESULT: < 50%

QUERY: Could you tell me which inhibition of growth at 50 µM is on file for "Cn1c(/C=C2/C(=O)Nc3ccc(Cl)cc32)nc2ccccc21" ?
RESULT: < 50%

* * *

Assay: Selectivity ratio of IC50 for human MCF10A cells to IC50 for human DU145 cells
Format: ADME, cell-based, MCF-10A
Conditions: MCF10A cells versus DU145 cells, read-out: Ratio IC50
QUANTITY: selectivity ratio
The answer should be a number; do not append a unit.

QUERY: Could you tell me which selectivity ratio is on file for "CC(C)n1c(/C=C2/C(=O)Nc3ccc(Br)cc32)nc2ccccc21" ?
RESULT: 8
